Examples of binders with documented FACS M2-HK MFI follow.
Target desc: M2 protein of A/Hong Kong/483/1997, on cells (Influenza A virus A/Hong Kong/483/97 (H5N1))
Assay text: FACS, supernatant on CHO cells stably expressing M2 of A/Hong Kong/483/97
Report the value in MFI with no unit label.

INSERT INTO measurements (binder, measured_property, unit_label, recorded_number) VALUES
  ('3420_I23 (antibody, V domains shown) VH: QVQLQESGPGLVKPSETLSVTCKVSGDSISSYSWSWIRQPPGKGLEWVGYLYYSGSTKYNPSLKSRTTISVDTSTNQLSLKLSFVTAADTAVYFCARTGSESTTGYGMDVWGQGTTVTVSS VL: DIQMTQSPSSLSASVGDRVTITCRASQSISTYLNWYQQKPGKAPKLLIYAASSLHSGVPSRFSGSGSGTDFALTISSLQPEDFATYYCQQSYSPPITFGQGTRLEIK', 'FACS M2-HK MFI', 'MFI', 112);

Would you kindly look at the next entry?
What does the record list as FACS M2-HK MFI for 3136_G05 (antibody, V domains shown) VH: QVQLQESGPGLVKPSETLSLTCSVSGGSISSDFWSWIRQPPGKGLEWIGYVYNRGSTKYSPSLKSRVTISADMSKNQFSLNMSSVTAADTAVYYCAKNGRSSTSWGIDVWGKGTTVTVSS VL: DIQMTQSPSSLSASVGDRLTITCRASQSISTYLHWYQQKPGKAPKLLIYAASSLQSGVPSRFSGSRSGTDFTLTISSLQPDDFATYYCQQSYSPPLTFGPGTKVDMK ?
109
